All figures here come from patent US20060263368A1.

System: A375-M Cells
Method Summary: Combination studies of GrB/scFvMEL with chemotherapeutic agents
Run Parameters: Seq. IV: agent for 72 h without GrB/scFvMEL pretreatment
Can you tell me % cytotoxicity for the items I'm about to list?
Use % as the unit, but write only the number.

Exercise: Value wanted: % cytotoxicity (A375-M Cells) of entry COc1cc([C@@H]2c3cc4c(cc3[C@@H](O[C@@H]3O[C@@H]5CO[C@@H](C)O[C@H]5[C@H](O)[C@H]3O)[C@H]3COC(=O)[C@H]23)OCO4)cc(OC)c1O [Etoposide]
Solution: 51.27

Exercise: Input COc1cccc2c1C(=O)c1c(O)c3c(c(O)c1C2=O)C[C@@](O)(C(=O)CO)C[C@@H]3O[C@H]1C[C@H](N)[C@H](O)[C@H](C)O1 [Doxorubicin]
Solution: 30.33

Exercise: Likewise for Nc1ccn([C@@H]2O[C@H](CO)[C@@H](O)[C@@H]2O)c(=O)n1 [Ara C, cytarabine] ?
Solution: 62.10

Exercise: Record: O=c1[nH]cc(F)c(=O)[nH]1 [5-Fluorouracil, 5-fluorouracil]
Solution: 21.90

====

System: A375-M Cells
Method Summary: Combination studies of GrB/scFvMEL with chemotherapeutic agents
Run Parameters: Seq. III: pretreated with GrB/scFvMEL for 6 h, then agent for 72 h
Measured Attribute: % cytotoxicity (%)
Return type: number; implicit unit %.

Exercise: Which measured % cytotoxicity value corresponds to Nc1ccn([C@@H]2O[C@H](CO)[C@@H](O)[C@@H]2O)c(=O)n1 ?
Solution: 68.70

Exercise: Do the same for COc1cccc2c1C(=O)c1c(O)c3c(c(O)c1C2=O)C[C@@](O)(C(=O)CO)C[C@@H]3O[C@H]1C[C@H](N)[C@H](O)[C@H](C)O1 please
Solution: 33.73

Exercise: Item: COc1cc([C@@H]2c3cc4c(cc3[C@@H](O[C@@H]3O[C@@H]5CO[C@@H](C)O[C@H]5[C@H](O)[C@H]3O)[C@H]3COC(=O)[C@H]23)OCO4)cc(OC)c1O [Etoposide]
Solution: 59.80

Exercise: Follow-up item: O=c1[nH]cc(F)c(=O)[nH]1
Solution: 44.43

====

Give measured IC50 for each item. Keep answers brief.
Tested on: Capan-1
Method Summary: In vitro cytotoxicity and combination study, crystal violet
Type: cell-based, human
Run Parameters: Homo sapiens, CAPAN-1; 72 hr of exposure
The figure you give is taken to be in nM; do not add the unit.

Exercise: // query IC50 value for entry COc1cccc2c1C(=O)c1c(O)c3c(c(O)c1C2=O)C[C@@](O)(C(=O)CO)C[C@@H]3O[C@H]1C[C@H](N)[C@H](O)[C@H](C)O1
Solution: 60

Exercise: Here is the next compound: COc1cc([C@@H]2c3cc4c(cc3[C@@H](O[C@@H]3O[C@@H]5CO[C@@H](C)O[C@H]5[C@H](O)[C@H]3O)[C@H]3COC(=O)[C@H]23)OCO4)cc(OC)c1O [Etoposide]
Solution: 2000

Exercise: Next entry: Nc1ccn([C@@H]2O[C@H](CO)[C@@H](O)C2(F)F)c(=O)n1
Solution: 20

Exercise: Would you kindly repeat that for O=c1[nH]cc(F)c(=O)[nH]1 ?
Solution: 6000

====

System: AsPc-1, Capan-1, Capan-2, and L3.6pl
Method Summary: cells
Run Parameters: Homo sapiens, Pancreatic cancer cell
Would you mind telling me the reported IC50 of each entry?

Exercise: Quick one: IC50 for COc1cccc2c1C(=O)c1c(O)c3c(c(O)c1C2=O)C[C@@](O)(C(=O)CO)C[C@@H]3O[C@H]1C[C@H](N)[C@H](O)[C@H](C)O1 ?
Solution: 6 to 700 nM

Exercise: Moving on to O=c1[nH]cc(F)c(=O)[nH]1
Solution: 1000 to 300000 nM

Exercise: Cool, now COc1cc([C@@H]2c3cc4c(cc3[C@@H](O[C@@H]3O[C@@H]5CO[C@@H](C)O[C@H]5[C@H](O)[C@H]3O)[C@H]3COC(=O)[C@H]23)OCO4)cc(OC)c1O [Etoposide]
Solution: 1000 to 300000 nM

Exercise: Next record, please: Nc1ccn([C@@H]2O[C@H](CO)[C@@H](O)C2(F)F)c(=O)n1
Solution: 6 to 700 nM
